assayMethodText: Influence on the gastro-intestinal tract (ulceration of the gastric epithelium, Shay et al.)
Assay type: in vivo, male rats of Sprague Dawley strain
conditionNotes: oral, pylorus ligated, 1 hour after administration; versus control (distilled water) 3.0; doses as for Evaluation
Recorded Increase (of ulceration evaluation) for the following compounds

Answered examples (3):
So for CC(=O)Oc1ccccc1C(=O)O [Acetylsalicylic acid (ASA), o-Acetylsalicylic acid] , the logged Increase (of ulceration evaluation) turned out to be 1.1

So for CCCCC1C(=O)N(c2ccccc2)N(c2ccccc2)C1=O [Phenylbutazone] , the logged Increase (of ulceration evaluation) turned out to be 2.5

So for Cc1cccc(Nc2ccccc2C(=O)O)c1C [N-(2',3'-xylyl) anthranylic acid (XAA)] , the logged Increase (of ulceration evaluation) turned out to be 1.2

Next:
So for Cc1cccc(Nc2ccccc2C(=O)OC2OC(=O)c3ccccc32)c1C (centres unmarked) [Phthalidyl N-(2',3'-xylyl) anthranylate, Phthalydil N(2',3'-xylyl) anthranylate] , the logged Increase (of ulceration evaluation) turned out to be 0.3

So for O=C(OC1OC(=O)c2ccccc21)c1ccccc1Nc1cccc(C(F)(F)F)c1 (centres unmarked) , the logged Increase (of ulceration evaluation) turned out to be 0.5

* * *

assayMethodText: Influence on the gastro-intestinal tract (ulceration of the gastric epithelium, Shay et al.)
Assay type: in vivo, male rats of Sprague Dawley strain
conditionNotes: oral, pylorus ligated, 1 hour after administration; 0=no hemorrhage sites ... 6=perforated ulcer; control 3.0; mg/kg: phenylbutazone 75, ASA 100, its ester 173, XAA 120, its ester 186, TAA 60, its ester 88
# TRUE = Evaluation (ulceration of the gastric epithelium, score 0-6) below 4 (exclusive); FALSE = Evaluation (ulceration of the gastric epithelium, score 0-6) at/above 4

Query: is_below(Evaluation (ulceration of the gastric epithelium, score 0-6), 4) for O=C(OC1OC(=O)c2ccccc21)c1ccccc1Nc1cccc(C(F)(F)F)c1 (stereo not drawn) ?
Response: TRUE

Next:
Query: is_below(Evaluation (ulceration of the gastric epithelium, score 0-6), 4) for CC(=O)Oc1ccccc1C(=O)OC1OC(=O)c2ccccc21 (stereo not drawn) [Phthalidyl acetylsalicylate, Phthalydil o-acetylsalicylate] ?
Response: TRUE

Query: is_below(Evaluation (ulceration of the gastric epithelium, score 0-6), 4) for CCCCC1C(=O)N(c2ccccc2)N(c2ccccc2)C1=O ?
Response: FALSE

Query: is_below(Evaluation (ulceration of the gastric epithelium, score 0-6), 4) for Cc1cccc(Nc2ccccc2C(=O)OC2OC(=O)c3ccccc32)c1C (stereo not drawn) [Phthalidyl N-(2',3'-xylyl) anthranylate, Phthalydil N(2',3'-xylyl) anthranylate] ?
Response: TRUE

Query: is_below(Evaluation (ulceration of the gastric epithelium, score 0-6), 4) for Cc1cccc(Nc2ccccc2C(=O)O)c1C ?
Response: FALSE
